The origin of these recorded values is ChEMBL document CHEMBL1146633.

# system-name: Histidine-rich protein PFHRP-II (Plasmodium falciparum)
# Sequence (whole entry): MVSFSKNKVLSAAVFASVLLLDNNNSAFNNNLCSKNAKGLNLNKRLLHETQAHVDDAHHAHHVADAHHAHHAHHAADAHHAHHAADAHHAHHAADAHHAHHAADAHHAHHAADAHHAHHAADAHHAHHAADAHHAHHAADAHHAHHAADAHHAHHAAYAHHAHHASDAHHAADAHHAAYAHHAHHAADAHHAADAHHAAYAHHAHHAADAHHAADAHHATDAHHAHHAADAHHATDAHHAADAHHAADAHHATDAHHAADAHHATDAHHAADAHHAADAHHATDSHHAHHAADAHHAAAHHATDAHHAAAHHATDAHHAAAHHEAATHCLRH
# experiment-summary: Vacuolar accumulation ratio (VAR) on beta-hematin inhibitory activity
# Format: functional
Sorting guide: entries reporting VAR beneath 400000 go in the 1 pile, the rest go in the 0 pile.

Take a look at these entries with their results.
COc1ccc(C(=O)NCCCN2CCN(CCCN(CC(C)C)CC(C)C)CC2)cc1; 1
CC(C)CN(CCCN1CCN(CCCNC(=O)c2ccc(Cl)cc2)CC1)CC(C)C; 1
CC(C)CN(CCCN1CCN(CCCNc2ccc([N+](=O)[O-])cn2)CC1)CC(C)C; 1
CC(C)CN(CCCN1CCN(CCCNc2ccnc3ccccc23)CC1)CC(C)C; 0
CC(C)CN(CCCN1CCN(CCCNC(=O)c2ccc3ccccc3c2)CC1)CC(C)C; 1

# check: VAR < 400000 for `CC(C)CN(CCCN1CCN(CCCNc2nc3ccccc3o2)CC1)CC(C)C`
1

What do you get for `CC(C)CN(CCCN1CCN(CCCNC(=O)c2ccncc2)CC1)CC(C)C` ?
1

What do you get for `CC(C)CN(CCCN1CCN(CCCNCc2ccccc2)CC1)CC(C)C` ?
0

What do you get for `COc1ccc(CNCCCN2CCN(CCCN(CC(C)C)CC(C)C)CC2)cc1` ?
0

====

# system-name: Histidine-rich protein PFHRP-II (Plasmodium falciparum) (UniProt P05227)
# experiment-summary: Vacuolar accumulation ratio (VAR) on beta-hematin inhibitory activity
# Type: functional
property-measured: VAR

CC(C)CN(CCCN1CCN(CCCNCc2ccc3ccccc3c2)CC1)CC(C)C; 475000
CC(C)CN(CCCN1CCN(CCCNc2[nH]cnc3ncnc2-3)CC1)CC(C)C; 6200
CC(C)CN(CCCN1CCN(CCCNc2cnccn2)CC1)CC(C)C; 3600
CC(C)CN(CCCN1CCN(CCCNCc2ccncc2)CC1)CC(C)C; 504000
CCN(CC)CCCC(C)Nc1ccnc2cc(Cl)ccc12 (configuration not stated); 5310
CC(C)CN(CCCN1CCN(CCCNc2ccnc3cc(Cl)ccc23)CC1)CC(C)C; 597000

Lab note: next molecule to report on.
I'm curious: which VAR was measured for `CC(C)CN(CCCN1CCN(CCCNCc2ccc(Cl)cc2)CC1)CC(C)C` tested on Histidine-rich protein PFHRP-II (Plasmodium falciparum) (UniProt P05227)?
475000

====

Catalogue of inhibition readings, one per entry.
# system-name: Histidine-rich protein PFHRP-II (Plasmodium falciparum) (UniProt P05227)
# experiment-summary: Inhibition of 1-monooleoyl glycerol (MOG) induced beta-hematin formation at 200 uM
# Type: functional
Field format: number, assumed %, no unit text.

CC(C)CN(CCCN1CCN(CCCNC(=O)c2ccc3ccccc3c2)CC1)CC(C)C; 54

Fill in the blank: the reported inhibition of `CC(C)CN(CCCN1CCN(CCCNc2ccc([N+](=O)[O-])cn2)CC1)CC(C)C` is ____.
53

What do you get for `CC(C)CN(CCCN1CCN(CCCNCc2ccc3ccccc3c2)CC1)CC(C)C` ?
98

What do you get for `CC(C)CN(CCCN1CCN(CCCNc2[nH]cnc3ncnc2-3)CC1)CC(C)C` ?
53

What do you get for `CC(C)CN(CCCN1CCN(CCCNC(=O)c2ccc(Cl)cc2)CC1)CC(C)C` ?
0

What do you get for `CC(C)CN(CCCN1CCN(CCCNC(=O)c2ccncc2)CC1)CC(C)C` ?
0
